Data origin, for the record: patent US20170342107A1

- experimental.target: mouse melanocortin-5 receptor (mouse, UniProt P41149 1-325)
- Sequence (P41149 whole entry): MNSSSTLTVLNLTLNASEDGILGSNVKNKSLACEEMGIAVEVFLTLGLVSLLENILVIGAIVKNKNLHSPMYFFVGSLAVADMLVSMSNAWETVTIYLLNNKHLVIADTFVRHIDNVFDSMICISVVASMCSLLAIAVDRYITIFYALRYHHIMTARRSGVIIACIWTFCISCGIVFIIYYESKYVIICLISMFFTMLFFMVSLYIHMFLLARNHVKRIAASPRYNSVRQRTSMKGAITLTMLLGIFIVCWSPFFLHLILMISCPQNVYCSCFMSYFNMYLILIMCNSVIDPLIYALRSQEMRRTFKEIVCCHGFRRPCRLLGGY
- test.description: cell-based or functional assay
Square brackets hold non-standard residues; d marks the D form. Bip = N[C@@H](Cc1ccc(-c2ccccc2)cc1)C(=O)O; dPhe(4-I) = N[C@H](Cc1ccc(I)cc1)C(=O)O; 2Nal = N[C@@H](Cc1ccc2ccccc2c1)C(=O)O; d2Nal = N[C@H](Cc1ccc2ccccc2c1)C(=O)O; Bta = N[C@@H](Cc1csc2ccccc12)C(=O)O; Tic = O=C(O)[C@@H]1Cc2ccccc2CN1
measurement.kind: Agonist, % of NDP-MSH maximal response (% @ 100 µM)
Give a bare numeral; the unit % @ 100 µM is implied.

Ac-[Tic]R[dPhe(4-I)]F-NH2 (SMILES CC(=O)N1Cc2ccccc2C[C@H]1C(=O)N[C@@H](CCCNC(=N)N)C(=O)N[C@H](Cc1ccc(I)cc1)C(=O)N[C@@H](Cc1ccccc1)C(N)=O) [SKY4-48-30, Ac-Tic-Arg-(pI)DPhe-Phe-NH2]
21
Ac-[Bta]R[dPhe(4-I)]F-NH2 (SMILES CC(=O)N[C@@H](Cc1csc2ccccc12)C(=O)N[C@@H](CCCNC(=N)N)C(=O)N[C@H](Cc1ccc(I)cc1)C(=O)N[C@@H](Cc1ccccc1)C(N)=O) [SKY5-146-4, Ac-3Bal-Arg-(pI)DPhe-Phe-NH2]
35
Ac-[Bip]R[dPhe(4-I)][2Nal]-NH2 [SKY4-48-36, Ac-Bip-Arg-(pI)DPhe-Nal(2')-NH2]
21
Ac-FR[dPhe(4-I)][d2Nal]-NH2 [SKY4-48-47, Ac-Phe-Arg-(pI)DPhe-DNal(2')-NH2]
39

Now consider a different binder.
Enquiry: What measured Agonist, % of NDP-MSH maximal response goes with Ac-[d2Nal]R[dPhe(4-I)][d2Nal]-NH2 [SKY4-48-49, Ac-DNal(2')-Arg-(pI)DPhe-DNal(2')-NH2] ?
Return: 43
